Listed here: items and their measured α1A log IC50 (M).
# systemName: α1A adrenoceptors (Oryctolagus cuniculus)
# Construct: from tissue; host or cells: rabbit liver membranes
# Sequence (O02824 1-466): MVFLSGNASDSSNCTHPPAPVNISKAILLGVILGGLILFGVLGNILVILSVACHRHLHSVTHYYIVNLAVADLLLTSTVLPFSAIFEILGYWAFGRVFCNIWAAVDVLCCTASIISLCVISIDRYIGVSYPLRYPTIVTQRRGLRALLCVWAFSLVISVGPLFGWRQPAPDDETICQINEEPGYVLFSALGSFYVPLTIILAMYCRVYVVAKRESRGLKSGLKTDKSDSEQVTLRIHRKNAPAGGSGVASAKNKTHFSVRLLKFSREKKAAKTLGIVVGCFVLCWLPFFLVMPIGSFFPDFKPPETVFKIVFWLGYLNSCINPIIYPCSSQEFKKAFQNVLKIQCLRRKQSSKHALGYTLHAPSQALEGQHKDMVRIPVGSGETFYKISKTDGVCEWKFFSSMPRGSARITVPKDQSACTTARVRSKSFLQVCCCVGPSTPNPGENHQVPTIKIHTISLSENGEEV
# testDescription: Binding of [3H]-prazosin to α1A adrenoceptors (rabbit liver membranes)
# measurementParameters: Table 5
Numeric only. Scale: a M

Ask: Please look at this compound and report its α1A log IC50 (M): CCCCCCN1CCN(c2ccccc2OC)CC1 [LDT 66]
Reply: −7.29

Ask: Note α1A log IC50 (M) for the compound shown: CCCCCCCN1CCN(c2ccccc2OC)CC1 [LDT 67]
Reply: −7.02

Ask: Quick one: give measured α1A log IC50 (M) for CCCCCCCCN1CCN(c2ccccc2OC)CC1 [LDT 68]
Reply: −7.35
